All values here come from patent US12668600B2.

Target: KRAS G12D (Homo sapiens, UniProt P01116, G12D)
Sequence (P01116 1-188 isoform P01116-2 G12D): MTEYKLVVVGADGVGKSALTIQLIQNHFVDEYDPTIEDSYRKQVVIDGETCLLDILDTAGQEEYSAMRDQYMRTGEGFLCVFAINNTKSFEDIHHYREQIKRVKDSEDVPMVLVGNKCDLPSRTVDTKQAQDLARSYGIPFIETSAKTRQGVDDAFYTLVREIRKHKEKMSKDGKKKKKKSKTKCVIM
Experiment: HTRF KRAS-SOS1 interaction assay, KRAS G12D
Conditions: binned ≤2 μM / >2 μM, read-out: Inhibition of KRAS G12D (IC50)
IC50 reference

>  <Compound>
CC(c1cncnc1N)N1CCOc2c(Cl)c(-c3ccc(F)c4sc(N)c(C#N)c34)c(F)c3nc(OC[C@@]45CCCN4C[C@H](F)C5)nc1c23 (single isomer, unassigned) [Compound 699]

>  <Target entity>
KRAS G12D (Homo sapiens, UniProt P01116, G12D)

>  <Endpoint value>
≤ 2000 nM

$$$$

Query compound follows.
Given item C[C@H](c1cc(C#N)cnc1N)N1CCOc2c(Cl)c(-c3ccc(F)c4sc(N)c(C#N)c34)c(F)c3nc(OC[C@@]45CCCN4C[C@H](F)C5)nc1c23 [Compound 873] , the value recorded as its IC50 is ≤ 2000 nM

---

Consider the following compounds and their measured pIC50 readings.
Molecular target: KRAS G12V (Homo sapiens, UniProt P01116, G12V)
Sequence (P01116 1-188 isoform P01116-2 G12V): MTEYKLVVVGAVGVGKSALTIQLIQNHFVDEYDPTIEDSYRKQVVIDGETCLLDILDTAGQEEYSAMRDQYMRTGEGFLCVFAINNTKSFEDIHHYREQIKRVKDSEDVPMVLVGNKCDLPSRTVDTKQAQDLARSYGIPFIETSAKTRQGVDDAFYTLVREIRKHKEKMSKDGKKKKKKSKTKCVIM
Assay: HTRF KRAS-SOS1 interaction assay, KRAS G12V
Settings: binned ≤2 μM / >2 μM, read-out: Inhibition of KRAS G12V (IC50)
pIC50: −log10 of the molar value.

Recorded pIC50 (compound C#Cc1c(F)ccc2cc(O)cc(-c3nc4c5c(nc(O[C@@H](C)[C@@H]6CCCN6C)nc5c3F)N([C@H](C)c3cccnc3N)CCO4)c12 (single isomer, unassigned) [Compound 779] ): ≥ 5.70

---

Molecular target: KRAS G12D (Homo sapiens, UniProt P01116, G12D)
Assay: HTRF KRAS-SOS1 interaction assay, KRAS G12D
Conditions: binned ≤2 μM / >2 μM, read-out: Inhibition of KRAS G12D (IC50)
pIC50: −log10 of the molar value.
Reported pIC50 values for a set of compounds

>  <Compound>
N#Cc1c(N)sc2c(F)ccc(-c3c(C(F)(F)F)c4c5c(nc(OC[C@@]67CCCN6C[C@H](F)C7)nc5c3F)N([C@H](CCN3CCOCC3)c3cccnc3N)CCO4)c12 (single isomer, unassigned) [Compound 735]

>  <pIC50>
≥ 5.70

$$$$
>  <Compound>
C[C@H](c1nccnc1N)N1CCOc2c(C(F)(F)F)c(-c3ccc(F)c4sc(N)c(C#N)c34)c(F)c3nc(OC[C@@]45CCCN4C[C@@]4(CC4(F)F)C5)nc1c23 [Compound 773]

>  <pIC50>
≥ 5.70

$$$$
>  <Compound>
N#Cc1c(N)sc2c(F)ccc(-c3c(Cl)c4c5c(nc(OC[C@@]67CCCN6C[C@H](F)C7)nc5c3F)N(C(c3cccnc3N)C(F)F)CCO4)c12 (single isomer, unassigned) [Compound 786]

>  <pIC50>
≥ 5.70

$$$$
>  <Compound>
C[C@H](c1cccnc1N)N1CCOc2c(C(F)(F)F)c(-c3cc(F)c(F)c4sc(N)c(C#N)c34)c(F)c3nc(OC[C@@]45CCCN4C[C@H](F)C5)nc1c23 (single isomer, unassigned) [Compound 853]

>  <pIC50>
≥ 5.70

$$$$

Then there is this compound:
Record summary for C[C@H](c1cccnc1N)N1CCOc2c(Cl)c(-c3ccc(F)c4sc(N)c(C#N)c34)c(F)c3nc(OC[C@@]45CCCN4C[C@]4(CC4(F)F)C5)nc1c23 [Compound 918] : reported pIC50 = ≥ 5.70

---

Molecular target: KRAS G12V (Homo sapiens, UniProt P01116, G12V)
Assay: HTRF KRAS-SOS1 interaction assay, KRAS G12V
Conditions: binned ≤2 μM / >2 μM, read-out: Inhibition of KRAS G12V (IC50)
Measure name: IC50

>  <Compound>
N#Cc1c(N)sc2c(F)ccc(-c3c(Cl)c4c5c(nc(OC[C@@]67CCCN6C[C@H](F)C7)nc5c3F)N([C@H](C/C=C/C(F)(F)F)c3cccnc3N)CCO4)c12

>  <Target entity>
KRAS G12V (Homo sapiens, UniProt P01116, G12V)

>  <Measure name>
IC50

>  <Endpoint value>
≤ 2000 nM

$$$$
>  <Compound>
N#Cc1c(N)sc2cccc(-c3c(Cl)c4c5c(nc(OC[C@@]67CCCN6C[C@H](F)C7)nc5c3F)N([C@@H](c3cccnc3N)C(F)F)CCO4)c12 (single isomer, unassigned) [Compound 802]

>  <Target entity>
KRAS G12V (Homo sapiens, UniProt P01116, G12V)

>  <Measure name>
IC50

>  <Endpoint value>
> 2000 nM

$$$$
>  <Compound>
C[C@H](c1cccnc1N)N1CCOc2c(Cl)c(-c3cccc4sc(N)c(C#N)c34)c(F)c3nc(OC[C@@H]4CCCN4C)nc1c23

>  <Target entity>
KRAS G12V (Homo sapiens, UniProt P01116, G12V)

>  <Measure name>
IC50

>  <Endpoint value>
≤ 2000 nM

$$$$
>  <Compound>
N#Cc1c(N)sc2c(F)ccc(-c3c(C(F)(F)F)c4c5c(nc(OC[C@@]67CCCN6C[C@H](F)C7)nc5c3F)N([C@H](CC3CCOC3)c3cccnc3N)CCO4)c12 (single isomer, unassigned) [Compound 772]

>  <Target entity>
KRAS G12V (Homo sapiens, UniProt P01116, G12V)

>  <Measure name>
IC50

>  <Endpoint value>
≤ 2000 nM

$$$$

Entry Cc1c(F)c(N)cc(-c2nc3c4c(nc(O[C@@H](C)[C@@H]5CCCN5C)nc4c2F)N([C@H](C)c2cccnc2N)C[C@H](C)O3)c1C(F)(F)F (single isomer, unassigned) ; IC50 = ≤ 2000 nM

---

Parameter pIC50: see the listing below.
Biological target: KRAS G12D (Homo sapiens, UniProt P01116, G12D)
Assay: HTRF KRAS-SOS1 interaction assay, KRAS G12D
Settings: binned ≤2 μM / >2 μM, read-out: Inhibition of KRAS G12D (IC50)
pIC50: −log10 of the molar value.

Field: example entries. Status: answers known.
>  <Molecule>
CO[C@H]1CCN(C)[C@@H]1COc1nc2c3c(c(C(F)(F)F)c(-c4ccc(F)c5sc(N)c(C#N)c45)c(F)c3n1)OCCN2[C@H](C)c1cc(F)cnc1N (single isomer, unassigned) [Compound 774]

>  <pIC50>
≥ 5.70

$$$$
>  <Molecule>
C[C@H](c1cccnc1N)N1CCOc2c(C(F)(F)F)c(-c3ccc(F)c4sc(N)c(C#N)c34)c(F)c3nc(OCC4(CN5CCC(=C(F)F)CC5)CC4)nc1c23 (single isomer, unassigned) [Compound 884]

>  <pIC50>
< 5.70

$$$$
>  <Molecule>
CCN(CC)CCC[C@H](c1cccnc1N)N1CCOc2c(C(F)(F)F)c(-c3ccc(F)c4sc(N)c(C#N)c34)c(F)c3nc(OC[C@@]45CCCN4C[C@H](F)C5)nc1c23 (single isomer, unassigned) [Compound 806]

>  <pIC50>
≥ 5.70

$$$$
>  <Molecule>
C[C@H]1CN([C@@H](c2cccnc2N)C(F)F)c2nc(OC[C@@]34CCCN3C[C@H](F)C4)nc3c(F)c(-c4ccc(F)c5sc(N)c(C#N)c45)c(C(F)(F)F)c(c23)O1 (single isomer, unassigned) [Compound 889]

>  <pIC50>
≥ 5.70

$$$$

Next up:
Record N#Cc1c(N)sc2c(F)ccc(-c3c(Cl)c4c5c(nc(OC[C@@]67CCCN6C[C@H](F)C7)nc5c3F)N(Cc3cccnc3N)C3COCC3CO4)c12 (mixture of isomers) [Compound 868] . Reported pIC50: ≥ 5.70

---

Target: KRAS G12S (Homo sapiens, UniProt P01116, G12S)
Construct: made in house; host or cells: E. coli, e.g. BL21 (DE3)
Sequence (P01116 1-188 isoform P01116-2 G12S): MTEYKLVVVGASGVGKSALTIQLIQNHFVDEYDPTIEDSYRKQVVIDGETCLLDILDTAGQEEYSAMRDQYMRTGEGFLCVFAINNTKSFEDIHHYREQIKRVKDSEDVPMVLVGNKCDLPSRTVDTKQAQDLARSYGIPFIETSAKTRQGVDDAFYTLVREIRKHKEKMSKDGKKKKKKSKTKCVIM
Assay: HTRF KRAS-SOS1 interaction assay, KRAS G12S
Format: biochemical
Conditions: binned ≤2 μM / >2 μM, read-out: Inhibition of KRAS G12S (IC50)
pIC50: −log10 of the molar value.
Measure name: pIC50

For orientation, consider the following solved cases.
>  <Compound>
CC[C@H](c1cc(F)cnc1N)N1CCOc2c(C(F)(F)F)c(-c3ccc(F)c4sc(N)c(C#N)c34)c(F)c3nc(OC[C@@]45CCCN4C[C@H](F)C5)nc1c23 [Compound 870]

>  <Endpoint value>
≥ 5.70

$$$$
>  <Compound>
C#Cc1c(F)ccc2cc(O)cc(-c3nc4c5c(nc(OC[C@@]67CCCN6C[C@H](F)C7)nc5c3F)N(C(C)c3cccnc3N)CCO4)c12 (mixture of isomers) [Compound 742]

>  <Endpoint value>
≥ 5.70

$$$$

GET /value?item= N#Cc1c(N)sc2c(F)ccc(-c3c(C(F)(F)F)c4c5c(nc(OCC6(CN7CCC8(CC7)CC8(F)F)CC6)nc5c3F)N([C@H](CCC(F)(F)F)c3cccnc3N)CCO4)c12 [Compound 637] &field=pIC50 returns ≥ 5.70
